Just for reference, patent US20100137136A1 is where these values come from.

Test system: Wheat (Triso)
Assay: Pre-emergence herbicidal effect and safener effect, wheat
Type: in vivo
Settings: herbicide I-2 20 g a.i./ha + safener 50 g a.i./ha
Measured % effect (with safener) accompanies every entry in the list below.

| molecule | % effect (with safener) / % |
| --- | --- |
| CCOC(=O)C1=NOC(c2ccccc2)(c2ccccc2)C1 | 10 |
| FC(F)(F)C(=NOCC1OCCO1)c1ccc(Cl)cc1 | 20 |
| CC1(C)OC(c2ccco2)CN1C(=O)C(Cl)Cl (racemic) | 10 |
| O=C(O)c1nc(C(Cl)(Cl)Cl)n(-c2ccc(Cl)cc2Cl)n1 | 10 |
| CCOC(=O)C1=NN(c2ccc(Cl)cc2Cl)C(C)(C(=O)OCC)C1 (centres unmarked) | 20 |
